Assay: physchem
Conditions: pH 7.4
Starred links: 1 amine or outer side, 2 acyl side, 3 side chain; linkers in the order of their positions; H or OH if unused. Non-standard residues stand in square brackets, D forms with d. Residues, ends and D or L forms follow the SMILES beside them. X8 = O=C([C@H](Cc1ccccc1)NC(=S)[C@@H]1CCCN1[*:1])[*:2]; X3 = CC(C)C[C@H](N[*:1])C(=S)N[C@H](CC(C)C)C(=O)[*:2]
MEASURED ATTRIBUTE: logD
Reply with the value as a number alone.

MOLECULE	logD
C[C@H](NC(=S)[C@@H](N)Cc1ccccc1)C(=O)O [4a]	-1.76
C[C@@H](O)[C@@H]1NC(=O)[C@H](CCCCN)NC(=O)[C@@H](Cc2c[nH]c3ccccc23)NC(=O)[C@H](Cc2ccccc2)NC(=O)[C@@H]2CCCN2C(=O)[C@H](Cc2ccccc2)NC1=O [compound 13, cyclo(-D-Trp^1-Lys-Thr-Phe-Pro-Phe^6-)] (cyclo(PF[dW]KTF))	-1.23
CC(C)[C@H](NC(=S)[C@@H](N)Cc1ccccc1)C(=O)O [5a]	-0.92
C[C@@H](O)[C@@H]1NC(=O)[C@H](CCCCN)NC(=O)[C@@H](Cc2c[nH]c3ccccc23)NC(=O)[C@H](Cc2ccccc2)NC(=S)[C@@H]2CCCN2C(=O)[C@H](Cc2ccccc2)NC1=O [13e] (cyclo(F[X8][dW]KT))	-0.72
CC(C)C[C@@H]1NC(=O)[C@@H](CC(C)C)NC(=O)[C@H]2CCCN2C(=O)[C@H](CC(C)C)NC(=O)[C@@H](CC(C)C)NC(=S)[C@H](CC(C)C)NC(=O)[C@@H]2CCCN2C(=O)[C@@H](C)NC1=O [12h] (cyclo([X3]L[dP][dL]L[dA]P))	1.49

Below: the item to evaluate.
Please look up its logD: N[C@@H](Cc1ccccc1)C(=S)NCC(=O)O [3a]
-1.61

---

Test: in vivo
Conditions: male, Wistar, rat, iv
Starred links: 1 amine or outer side, 2 acyl side, 3 side chain; linkers in the order of their positions; H or OH if unused. Non-standard residues stand in square brackets, D forms with d. Residues, ends and D or L forms follow the SMILES beside them. X1 = CC(C)C[C@H](NC(=S)[C@H](Cc1ccc(O)cc1)N[*:1])C(=O)[*:2]; X2 = CC(C)C[C@H](NC(=S)[C@@H](CC(C)C)N[*:1])C(=O)[*:2]; X3 = CC(C)C[C@H](N[*:1])C(=S)N[C@H](CC(C)C)C(=O)[*:2]; NMeL = CN[C@@H](CC(C)C)C(=O)O
Listing of recorded Vd by entry.
The reply should be a number in L/kg, with the unit left off.

Examples from the recorded data:
COMPOUND	Vd (L/kg)
CC(C)C[C@@H]1NC(=O)[C@H](Cc2ccc(O)cc2)NC(=O)[C@H]2CCCN2C(=O)[C@H](CC(C)C)NC(=O)[C@H](CC(C)C)NC(=O)[C@@H](CC(C)C)NC1=O [compound 10, cyclo(-D-Leu^1-Leu-Leu-D-Pro-Tyr-Leu^6-)] (cyclo(LL[dP]YL[dL]))	4.1
CC(C)C[C@@H]1NC(=O)[C@@H](CC(C)C)NC(=O)[C@H](CC(C)C)N(C)C(=O)[C@H](Cc2ccc(O)cc2)NC(=O)[C@H]2CCCN2C(=O)[C@H](CC(C)C)NC1=O [10k] (cyclo(LL[dP]Y[NMeL][dL]))	0.8
CC(C)C[C@@H]1NC(=O)[C@H](Cc2ccc(O)cc2)NC(=O)[C@H]2CCCN2C(=O)[C@H](CC(C)C)NC(=O)[C@H](CC(C)C)N(C)C(=O)[C@@H](CC(C)C)NC1=O [10h] (cyclo(L[dL][NMeL]L[dP]Y))	2.3
CC(C)C[C@@H]1NC(=O)[C@@H](CC(C)C)NC(=S)[C@H](CC(C)C)NC(=O)[C@H](Cc2ccc(O)cc2)NC(=O)[C@H]2CCCN2C(=O)[C@H](CC(C)C)NC1=O [10f] (cyclo(LL[dP]Y[X3]))	3.2

Requested field: Vd. Item: CC(C)C[C@@H]1NC(=O)[C@H](Cc2ccc(O)cc2)NC(=O)[C@H]2CCCN2C(=O)[C@H](CC(C)C)NC(=O)[C@H](CC(C)C)NC(=S)[C@@H](CC(C)C)NC1=O [10a] (cyclo(L[dP]YL[X2]))
28.6

Endpoint output: Vd of CC(C)C[C@@H]1NC(=O)[C@@H](CC(C)C)NC(=O)[C@H](CC(C)C)NC(=S)[C@H](Cc2ccc(O)cc2)NC(=O)[C@H]2CCCN2C(=O)[C@H](CC(C)C)NC1=O [10e] (cyclo(LL[dP][X1][dL])) . Value?
0.7

---

Assay type: physicochemical
Starred links: 1 amine or outer side, 2 acyl side, 3 side chain; linkers in the order of their positions; H or OH if unused. Non-standard residues stand in square brackets, D forms with d. Residues, ends and D or L forms follow the SMILES beside them. X13 = CC[C@H](C)[C@H](NC(=S)[C@@H]1CCCN1[*:1])C(=O)[*:2]; X14 = C[C@H](N[*:1])C(=S)N[C@@H](Cc1ccccc1)C(=O)[*:2]; X3 = CC(C)C[C@H](N[*:1])C(=S)N[C@H](CC(C)C)C(=O)[*:2]; X5 = CC(C)C[C@H](NC(=S)[C@H](CC(C)C)N[*:1])C(=O)[*:2]
MEASURED ATTRIBUTE: % solubility (%)
Give a bare numeral; the unit % is implied.

Solved cases below.
COMPOUND	ASSAY VALUE
CC[C@H](C)[C@@H]1NC(=O)[C@@H]2CCCN2C(=O)[C@H]([C@@H](C)CC)NC(=O)[C@@H]2CCCN2C(=O)[C@H](Cc2ccccc2)NC(=S)[C@H](C)NC(=O)[C@H](C)NC1=O [11c] (cyclo(A[X14]PIPI))	76
CC(C)C[C@@H]1NC(=O)[C@H](Cc2ccc(O)cc2)NC(=O)[C@H]2CCCN2C(=O)[C@H](CC(C)C)NC(=S)[C@H](CC(C)C)NC(=O)[C@@H](CC(C)C)NC1=O [10b] (cyclo(L[dL][X5][dP]Y))	26
CC[C@H](C)[C@@H]1NC(=S)[C@@H]2CCCN2C(=O)[C@H]([C@@H](C)CC)NC(=O)[C@@H]2CCCN2C(=O)[C@H](Cc2ccccc2)NC(=O)[C@H](C)NC(=O)[C@H](C)NC1=O [11g] (cyclo(AAFPI[X13]))	93

# % solubility lookup, item CC(C)C[C@@H]1NC(=O)[C@@H](CC(C)C)NC(=S)[C@H](CC(C)C)NC(=O)[C@H](Cc2ccc(O)cc2)NC(=O)[C@H]2CCCN2C(=O)[C@H](CC(C)C)NC1=O [10f] (cyclo(LL[dP]Y[X3]))
23

---

Assay: Retention in hydrophobic C18 column by HPLC
Settings: Supplementary Fig 3d, logD7.4 vs tR
Starred links: 1 amine or outer side, 2 acyl side, 3 side chain; linkers in the order of their positions; H or OH if unused. Non-standard residues stand in square brackets, D forms with d. Residues, ends and D or L forms follow the SMILES beside them. X3 = CC(C)C[C@H](N[*:1])C(=S)N[C@H](CC(C)C)C(=O)[*:2]
Recorded measurements of tR, one per entry

COMPOUND	ASSAY VALUE
CC(C)C[C@@H]1NC(=O)[C@@H](CC(C)C)NC(=O)[C@H]2CCCN2C(=O)[C@H](CC(C)C)NC(=O)[C@@H](CC(C)C)NC(=O)[C@H](CC(C)C)NC(=O)[C@@H]2CCCN2C(=O)[C@@H](C)NC1=O [compound 12] (cyclo(L[dA]PL[dL]L[dP][dL]))	12.6 min

The record that follows has no tR shown yet.
Look at this compound and give its reported tR. CC(C)C[C@@H]1NC(=O)[C@@H](CC(C)C)NC(=O)[C@H]2CCCN2C(=O)[C@H](CC(C)C)NC(=O)[C@@H](CC(C)C)NC(=S)[C@H](CC(C)C)NC(=O)[C@@H]2CCCN2C(=O)[C@@H](C)NC1=O [12h] (cyclo([X3]L[dP][dL]L[dA]P))
16.4 min

---

Experiment: in vitro
Settings: pig, simulated intestinal fluid
Starred links: 1 amine or outer side, 2 acyl side, 3 side chain; linkers in the order of their positions; H or OH if unused. Non-standard residues stand in square brackets, D forms with d. Residues, ends and D or L forms follow the SMILES beside them. X3 = CC(C)C[C@H](N[*:1])C(=S)N[C@H](CC(C)C)C(=O)[*:2]; X5 = CC(C)C[C@H](NC(=S)[C@H](CC(C)C)N[*:1])C(=O)[*:2]; NMeY = CN[C@@H](Cc1ccc(O)cc1)C(=O)O
Measured remaining at 0.5 h by item
The reply should contain only the number, in %.

The following molecules have reported results that may help.
MOLECULE	MEASURED ATTRIBUTE	UOM	ASSAY VALUE
CC(C)C[C@@H]1NC(=O)[C@H](Cc2ccc(O)cc2)NC(=O)[C@H]2CCCN2C(=O)[C@H](CC(C)C)NC(=S)[C@H](CC(C)C)NC(=O)[C@@H](CC(C)C)NC1=O [10b] (cyclo(L[dL][X5][dP]Y))	remaining at 0.5 h	%	53.6
CC(C)C[C@@H]1NC(=O)[C@H](Cc2ccc(O)cc2)NC(=O)[C@H]2CCCN2C(=O)[C@H](CC(C)C)NC(=O)[C@H](CC(C)C)NC(=O)[C@@H](CC(C)C)NC1=O [compound 10, cyclo(-D-Leu^1-Leu-Leu-D-Pro-Tyr-Leu^6-)] (cyclo(LL[dP]YL[dL]))	remaining at 0.5 h	%	39

Any idea what remaining at 0.5 h was measured for CC(C)C[C@@H]1NC(=O)[C@@H](CC(C)C)NC(=O)[C@H](CC(C)C)NC(=O)[C@H](Cc2ccc(O)cc2)N(C)C(=O)[C@H]2CCCN2C(=O)[C@H](CC(C)C)NC1=O [10j] (cyclo(LL[dP][NMeY]L[dL])) ?
58

State the recorded remaining at 0.5 h for this entry: CC(C)C[C@@H]1NC(=O)[C@@H](CC(C)C)NC(=S)[C@H](CC(C)C)NC(=O)[C@H](Cc2ccc(O)cc2)NC(=O)[C@H]2CCCN2C(=O)[C@H](CC(C)C)NC1=O [10f] (cyclo(LL[dP]Y[X3]))
67.2

Hello, the source for this data is paper PMC10539501, in case you need it.
